System: acyl-CoA:cholesterol acyltransferase (ACAT)
procedureSummary: Inhibitory activity on acyl-CoA:cholesterol acyltransferase (ACAT), microsomal fraction of intestinal mucosa, [1-14C]oleyl-CoA incorporation into cholesterol esters
Format: biochemical, white rabbit
settings: compound concentration 0.01 µm; rabbit intestinal mucosa microsomes
parameter: Inhibition rate % (%)

[[record]]
structuresmilesstring = "CCc1cccc(CC)c1NC(=O)Nc1nc(C)sc1-c1ccccc1Cl"
systemname = "acyl-CoA:cholesterol acyltransferase (ACAT)"
testvalue = 51.4

[[record]]
structuresmilesstring = "CC(C)c1cccc(C(C)C)c1NC(=O)Nc1nc(-c2ccccc2)n(C)c1-c1ccccc1Cl"
systemname = "acyl-CoA:cholesterol acyltransferase (ACAT)"
testvalue = 33.5

[[record]]
structuresmilesstring = "CC(C)c1cccc(C(C)C)c1NC(=O)Nc1nc(-c2ccccc2)n(Cc2ccccc2)c1-c1ccccc1Cl"
systemname = "acyl-CoA:cholesterol acyltransferase (ACAT)"
testvalue = 80.4

[[record]]
structuresmilesstring = "CCc1nc(-c2ccccc2Cl)c(NC(=O)Nc2c(C(C)C)cccc2C(C)C)s1"
systemname = "acyl-CoA:cholesterol acyltransferase (ACAT)"
testvalue = 42.9

[[record]]
structuresmilesstring = "Cc1ccccc1-c1nc(-c2ccccc2)sc1NC(=O)Nc1c(C(C)C)cccc1C(C)C"
systemname = "acyl-CoA:cholesterol acyltransferase (ACAT)"
testvalue = 55.2

[[record]]
structuresmilesstring = "CSc1ccccc1-c1sc(-c2ccccc2)nc1NC(=O)Nc1c(C(C)C)cccc1C(C)C"
systemname = "acyl-CoA:cholesterol acyltransferase (ACAT)"
testvalue = 76.8

[[record]]
structuresmilesstring = "Cc1nc(NC(=O)Nc2c(C(C)C)cccc2C(C)C)c(-c2ccccc2Cl)s1"
systemname = "acyl-CoA:cholesterol acyltransferase (ACAT)"
testvalue = 88.1

[[record]]
structuresmilesstring = "Cc1ccccc1-c1oc(-c2ccccc2)nc1NC(=O)Nc1c(C(C)C)cccc1C(C)C"
systemname = "acyl-CoA:cholesterol acyltransferase (ACAT)"
testvalue = 70.6

[[record]]
structuresmilesstring = "CCc1cccc(CC)c1NC(=O)Nc1nc(-c2ccccc2)sc1-c1ccccc1C"
systemname = "acyl-CoA:cholesterol acyltransferase (ACAT)"
testvalue = 64.1

[[record]]
structuresmilesstring = "Cc1ccccc1-c1nc(-c2ccccc2)oc1NC(=O)Nc1c(C(C)C)cccc1C(C)C"
systemname = "acyl-CoA:cholesterol acyltransferase (ACAT)"
testvalue = 62.0

[[record]]
structuresmilesstring = "Cc1nc(-c2ccccc2Cl)c(NC(=O)Nc2c(C(C)C)cccc2C(C)C)s1"
systemname = "acyl-CoA:cholesterol acyltransferase (ACAT)"
testvalue = 63.9

[[record]]
structuresmilesstring = "Cc1ccccc1-c1sc(-c2ccccc2)nc1NC(=O)Nc1c(C(C)C)cccc1C(C)C"
systemname = "acyl-CoA:cholesterol acyltransferase (ACAT)"
testvalue = 86.5

[[record]]
structuresmilesstring = "CC(C)c1cccc(C(C)C)c1NC(=O)Nc1sc(-c2ccccc2)nc1-c1ccccc1Cl"
systemname = "acyl-CoA:cholesterol acyltransferase (ACAT)"
testvalue = 38.7

[[record]]
structuresmilesstring = "Cc1nc(NC(=O)Nc2c(C(C)C)cccc2C(C)C)c(-c2ccccc2C)s1"
systemname = "acyl-CoA:cholesterol acyltransferase (ACAT)"
testvalue = 90.2

[[record]]
structuresmilesstring = "CC(C)c1cccc(C(C)C)c1NC(=O)Nc1nc(-c2ccccc2)sc1-c1ccccc1Cl"
systemname = "acyl-CoA:cholesterol acyltransferase (ACAT)"
testvalue = 59.4


---

Let's look at some compounds and their measured Inhibition rate %.
Tested on: acyl-CoA:cholesterol acyltransferase (ACAT)
procedureSummary: Inhibitory activity on acyl-CoA:cholesterol acyltransferase (ACAT), microsomal fraction of intestinal mucosa, [1-14C]oleyl-CoA incorporation into cholesterol esters
Assay type: biochemical, white rabbit
settings: compound concentration 1 (head prints '1 | 0.01 µm'); rabbit intestinal mucosa microsomes
parameter: Inhibition rate % (%)

[[record]]
structuresmilesstring = "CC(C)c1cccc(C(C)C)c1NC(=O)Nc1sc(N2CCCCC2)nc1-c1ccccc1Cl"
systemname = "acyl-CoA:cholesterol acyltransferase (ACAT)"
units = "%"
testvalue = 99.9

[[record]]
structuresmilesstring = "CCCCCc1nc(-c2ccccc2Cl)c(NC(=O)Nc2c(C(C)C)cccc2C(C)C)s1"
systemname = "acyl-CoA:cholesterol acyltransferase (ACAT)"
units = "%"
testvalue = 96.2

[[record]]
structuresmilesstring = "CC(C)c1cccc(C(C)C)c1NC(=O)Nc1nc(-c2ccccc2)n(C)c1-c1ccccc1Cl"
systemname = "acyl-CoA:cholesterol acyltransferase (ACAT)"
units = "%"
testvalue = 99.6

[[record]]
structuresmilesstring = "CC(C)c1cccc(C(C)C)c1NC(=O)Nc1nc(-c2ccccc2)[nH]c1-c1ccccc1Cl"
systemname = "acyl-CoA:cholesterol acyltransferase (ACAT)"
units = "%"
testvalue = 77.9

[[record]]
structuresmilesstring = "COc1ccc(Cn2c(-c3ccccc3)nc(NC(=O)Nc3c(C(C)C)cccc3C(C)C)c2-c2ccccc2Cl)cc1"
systemname = "acyl-CoA:cholesterol acyltransferase (ACAT)"
units = "%"
testvalue = 99.2

[[record]]
structuresmilesstring = "CCc1cccc(CC)c1NC(=O)Nc1sc(N2CCCCC2)nc1-c1ccccc1"
systemname = "acyl-CoA:cholesterol acyltransferase (ACAT)"
units = "%"
testvalue = 99.8

[[record]]
structuresmilesstring = "Cc1ccccc1-c1nc(-c2ccccc2)sc1NC(=O)Nc1c(C(C)C)cccc1C(C)C"
systemname = "acyl-CoA:cholesterol acyltransferase (ACAT)"
units = "%"
testvalue = 99.8

[[record]]
structuresmilesstring = "Cc1nc(-c2ccccc2Cl)c(NC(=O)Nc2ccc(F)cc2F)s1"
systemname = "acyl-CoA:cholesterol acyltransferase (ACAT)"
units = "%"
testvalue = 46.1

[[record]]
structuresmilesstring = "CC(C)c1cccc(C(C)C)c1NC(=O)Nc1nc(-c2ccccc2)sc1-c1ccccc1Cl"
systemname = "acyl-CoA:cholesterol acyltransferase (ACAT)"
units = "%"
testvalue = 99.6

[[record]]
structuresmilesstring = "CC(C)c1cccc(C(C)C)c1NC(=O)Nc1sc(C2CCCCC2)nc1-c1ccccc1Cl"
systemname = "acyl-CoA:cholesterol acyltransferase (ACAT)"
units = "%"
testvalue = 72.7

[[record]]
structuresmilesstring = "Cc1nc(-c2ccccc2C)c(NC(=O)Nc2c(C(C)C)cccc2C(C)C)s1"
systemname = "acyl-CoA:cholesterol acyltransferase (ACAT)"
units = "%"
testvalue = 99.1

[[record]]
structuresmilesstring = "COCn1c(-c2ccccc2)nc(NC(=O)Nc2c(C(C)C)cccc2C(C)C)c1-c1ccccc1Cl"
systemname = "acyl-CoA:cholesterol acyltransferase (ACAT)"
units = "%"
testvalue = 99.2

[[record]]
structuresmilesstring = "Cc1nc(-c2ccccc2)c(NC(=O)Nc2c(C(C)C)cccc2C(C)C)s1"
systemname = "acyl-CoA:cholesterol acyltransferase (ACAT)"
units = "%"
testvalue = 92.1

[[record]]
structuresmilesstring = "CC(C)c1cccc(C(C)C)c1NC(=O)Nc1nc(N2CCOCC2)sc1-c1ccccc1Cl"
systemname = "acyl-CoA:cholesterol acyltransferase (ACAT)"
units = "%"
testvalue = 97.9

[[record]]
structuresmilesstring = "CC(C)c1cccc(C(C)C)c1NC(=O)Nc1nc(-c2ccccc2)n(COCC[Si](C)(C)C)c1-c1ccccc1Cl"
systemname = "acyl-CoA:cholesterol acyltransferase (ACAT)"
units = "%"
testvalue = 99.4

[[record]]
structuresmilesstring = "Cc1nc(-c2ccccc2C)c(NC(=O)Nc2ccc(F)cc2F)s1"
systemname = "acyl-CoA:cholesterol acyltransferase (ACAT)"
units = "%"
testvalue = 49.4

[[record]]
structuresmilesstring = "CC(C)c1cccc(C(C)C)c1NC(=O)Nc1c(-c2ccccc2Cl)nc(-c2ccccc2)n1Cc1ccccc1"
systemname = "acyl-CoA:cholesterol acyltransferase (ACAT)"
units = "%"
testvalue = 79.5

[[record]]
structuresmilesstring = "CC(C)c1cccc(C(C)C)c1NC(=O)Nc1sc(-c2ccccc2)nc1-c1ccccc1Cl"
systemname = "acyl-CoA:cholesterol acyltransferase (ACAT)"
units = "%"
testvalue = 99.9

[[record]]
structuresmilesstring = "CCc1nc(-c2ccccc2Cl)c(NC(=O)Nc2c(C(C)C)cccc2C(C)C)s1"
systemname = "acyl-CoA:cholesterol acyltransferase (ACAT)"
units = "%"
testvalue = 99.2

[[record]]
structuresmilesstring = "CC(C)c1cccc(C(C)C)c1NC(=O)Nc1sc(N(C)C)nc1-c1ccccc1Cl"
systemname = "acyl-CoA:cholesterol acyltransferase (ACAT)"
units = "%"
testvalue = 99.2

[[record]]
structuresmilesstring = "CCc1cccc(CC)c1NC(=O)Nc1sc(C)nc1-c1ccccc1Cl"
systemname = "acyl-CoA:cholesterol acyltransferase (ACAT)"
units = "%"
testvalue = 97.8

[[record]]
structuresmilesstring = "CC(C)c1cccc(C(C)C)c1NC(=O)Nc1sc(N2CCOCC2)nc1-c1ccccc1Cl"
systemname = "acyl-CoA:cholesterol acyltransferase (ACAT)"
units = "%"
testvalue = 99.8

